targetOrSystem: HLA-A*0201 (human)
reportedProperty: relative binding ratio (IC50 of standard peptide / IC50 of test peptide)
Please give the numeric answer without any surrounding text.

Problem: Query (binder): EVFEFAFKDL (modifications not checked) [HPV18 E6 peptide … (position 43)] ; field requested: relative binding ratio (IC50 of standard peptide / IC50 of test peptide)
Result: 0.0009
